- system.tested: S1P1 (membranes prepared from S1P1/CHO cells) (Homo sapiens (Human), UniProt P21453)
- Sequence (P21453 whole entry): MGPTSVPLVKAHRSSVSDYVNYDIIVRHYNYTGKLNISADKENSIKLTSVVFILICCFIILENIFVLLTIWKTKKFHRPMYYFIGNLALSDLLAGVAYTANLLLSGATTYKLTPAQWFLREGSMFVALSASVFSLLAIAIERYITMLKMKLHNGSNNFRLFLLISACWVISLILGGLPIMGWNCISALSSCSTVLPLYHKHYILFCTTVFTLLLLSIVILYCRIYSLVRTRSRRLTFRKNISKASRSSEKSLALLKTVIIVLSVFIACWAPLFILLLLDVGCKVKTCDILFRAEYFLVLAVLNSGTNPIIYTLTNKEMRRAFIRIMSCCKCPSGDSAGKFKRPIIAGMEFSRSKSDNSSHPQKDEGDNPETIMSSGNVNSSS
- assay.protocol: Receptor [35S] GTPγS binding assay (S1P1 GTPγS)
- Assay type: biochemical
- conditions: phosphate examples; read-out: S1P1 GTPγS
Listed compounds paired with reported EC50

smiles.input	EC50
N[C@]1(COP(=O)(O)O)CC[C@@H](c2ccc3c(c2)CC[C@H](CSc2ccccc2)C3)C1	100 to 1000 nM
COc1ccc(C[C@@H]2CCc3cc([C@H]4CC[C@](N)(COP(=O)(O)O)C4)ccc3C2)cc1OC	100 to 1000 nM
N[C@]1(COP(=O)(O)O)CC[C@H](c2ccc3c(c2)CC[C@H](COCc2ccccc2)C3)C1	10 to 100 nM

---

- system.tested: S1P1 (membranes prepared from S1P1/CHO cells) (Homo sapiens (Human))
- assay.protocol: Receptor [35S] GTPγS binding assay (S1P1 GTPγS)
- Format: biochemical
- conditions: phosphate examples; read-out: S1P1 GTPγS

molecule	system.tested	EC50
COc1cncc(OC[C@@H]2CCc3cc([C@H]4CC[C@](N)(COP(=O)(O)O)C4)ccc3C2)c1	S1P1 (membranes prepared from S1P1/CHO cells) (Homo sapiens (Human))	0.01 to 0.1 µM
CCCC/C=C\CO[C@H]1CCc2cc([C@H]3CC[C@](N)(COP(=O)(O)O)C3)ccc2C1	S1P1 (membranes prepared from S1P1/CHO cells) (Homo sapiens (Human))	< 0.01 µM
CC(C)SCC[C@H]1CCc2cc([C@H]3CC[C@](N)(COP(=O)(O)O)C3)ccc2C1	S1P1 (membranes prepared from S1P1/CHO cells) (Homo sapiens (Human))	0.01 to 0.1 µM
CN(C)CCCCC[C@@H]1CCc2cc([C@H]3CC[C@](N)(COP(=O)(O)O)C3)ccc2C1	S1P1 (membranes prepared from S1P1/CHO cells) (Homo sapiens (Human))	0.1 to 1 µM
CCCCCCN1CCc2cc([C@@H]3CC[C@](N)(COP(=O)(O)O)C3)ccc2C1=O	S1P1 (membranes prepared from S1P1/CHO cells) (Homo sapiens (Human))	0.1 to 1 µM
COCCCCCC[C@H]1CCc2cc(C3CCC(N)(COP(=O)(O)O)C3)ccc2C1 (single isomer, unassigned)	S1P1 (membranes prepared from S1P1/CHO cells) (Homo sapiens (Human))	< 0.01 µM
CC/C=C\CC[C@@H]1CCc2cc([C@H]3CC[C@](N)(COP(=O)(O)O)C3)ccc2C1	S1P1 (membranes prepared from S1P1/CHO cells) (Homo sapiens (Human))	0.01 to 0.1 µM

---

- system.tested: hS1P1/CHO cells (Homo sapiens (Human), UniProt P21453)
- assay.protocol: hS1P1 ERK phosphorylation (S1P1 pERK)
- conditions: phosphate examples
endpoint.label: EC50

molecule	recorded.value
COc1ccccc1/C=C/[C@@H]1CCc2cc([C@H]3CC[C@](N)(COP(=O)(O)O)C3)ccc2C1	10 to 100 nM
N[C@]1(COP(=O)(O)O)CC[C@H](c2ccc3c(c2)CC[C@H](CSCCc2ccccc2)C3)C1	10 to 100 nM
CCCCCCCOC1CCc2cc([C@H]3CC[C@](N)(COP(=O)(O)O)C3)ccc2C1 (stereo partly shown)	10 to 100 nM
COCCCCC[C@@H]1CCc2cc(C3CCC(N)(COP(=O)(O)O)C3)ccc2C1 (single isomer, unassigned)	< 10 nM
C=CCOCCC[C@@H]1CCc2cc(C3CCC(N)(COP(=O)(O)O)C3)ccc2C1 (single isomer, unassigned)	< 10 nM
Cc1ccc(OC[C@H]2CCc3cc([C@H]4CC[C@](N)(COP(=O)(O)O)C4)ccc3C2)cc1	10 to 100 nM
N[C@]1(COP(=O)(O)O)CC[C@H](c2ccc3c(c2)CC[C@H](COc2ccccc2)C3)C1	< 10 nM
CCCCCC1CCc2cc([C@H]3CC[C@](N)(COP(=O)(O)O)C3)ccc2C1 (stereo partly shown) [compound 576]	10 to 100 nM
COc1cccc(F)c1CC[C@H]1CCc2cc([C@@H]3CC[C@@](N)(COP(=O)(O)O)C3)ccc2C1 (single isomer, unassigned)	10 to 100 nM
CCCC/C=C/C1=Cc2ccc([C@H]3CC[C@](N)(COP(=O)(O)O)C3)cc2CC1	10 to 100 nM
NC1(COP(=O)(O)O)CC[C@H](c2ccc3c(c2)CC[C@@H](c2ccccc2)C3)C1 (single isomer, unassigned)	< 10 nM
Cc1ccccc1SC[C@@H]1CCc2cc([C@H]3CC[C@](N)(COP(=O)(O)O)C3)ccc2C1	10 to 100 nM
CCCCCC[C@H]1COc2cc([C@@H]3CC[C@](N)(COP(=O)(O)O)C3)ccc2C1	< 10 nM
